Just for reference, paper PMC12305662 is where these values come from.

System: Mtb H37Rv
assay.remarks: Depletion of intracellular ATP (BacTiter Glo), Mtb on cholesterol
Format: cell-based, Mycobacterium tuberculosis
reported.conditions: Mycobacterium tuberculosis, H37RV, 168 h, cholesterol as sole carbon source; 1 week post-compound treatment; read-out: ATP-IC50 (W1) H37Rv, cholesterol
observation.type: IC50 (µM)
State the answer as a number, implicitly in µM.

Study these solved cases before continuing.
Entry C[C@@H](NC(=O)c1cccc(Cc2ccncc2)c1)c1ccccc1 [5h] : reported IC50 = ?
9.4

Entry COc1ccc(CNc2cccc(Cc3ccncc3)c2)cc1 [5l] : reported IC50 = ?
0.59

Entry Nc1ccc(C(=O)O)c(O)c1 [p-aminosalicylic acid, reference compound] : reported IC50 = ?
0.04

Entry O=C(Nc1ccc(Cc2ccncc2)cc1)c1ccccc1 [5a] : reported IC50 = ?
19

Entry O=C(NCc1ccc2[nH]ccc2c1)c1cccc(Cc2ccncc2)c1 [5e] : reported IC50 = ?
2.3

Others:
Entry COc1ccc(CNc2ccc(N(C)c3ccncc3)cc2)cc1 [5n] : reported IC50 = ?
4.7

Entry COc1ccc(C(C)Nc2ccc(Cc3ccncc3)cc2)cc1 (stereo not drawn) [5o] : reported IC50 = ?
0.15

Entry C[C@@H](NC(=O)c1ccc(Cc2ccncc2)cc1)c1ccccc1 [5i] : reported IC50 = ?
9.4

Entry O=S(=O)(Nc1ccc(Cc2ccncc2)cc1)c1ccccc1 [5j] : reported IC50 = ?
38

Entry O=C(Nc1ccc(Cc2ccncc2)cc1)[C@H](Cc1c[nH]c2ccccc12)NCc1ccccc1 [5d] : reported IC50 = ?
4.7

Entry CN(c1ccncc1)c1ccc(NC(=O)c2ccccc2)cc1 [5c] : reported IC50 = ?
9.4

Entry CS(=O)(=O)c1cccc(CNc2ccc(Cc3ccncc3)cc2)c1 [5p] : reported IC50 = ?
1.2

* * *

Test system: Mtb H37Rv
assay.remarks: Depletion of intracellular ATP (BacTiter Glo), Mtb on cholesterol
Assay type: cell-based, Mycobacterium tuberculosis
reported.conditions: cholesterol as sole carbon source; 1 week post-compound treatment; read-out: ATP-IC50 (W1) H37Rv, cholesterol
observation.type: pIC50
When answering, recall that pIC50 equals minus log10 of the concentration in mol/L, and write that number alone.

Give recorded pIC50 with Mtb H37Rv for the following compound: `O=C(NCc1ccc2[nH]ccc2c1)c1cccc(Nc2ccncc2)c1`
5.33

* * *

system: CYP125 (Mycobacterium tuberculosis)
Sequence (P9WPP1 whole entry): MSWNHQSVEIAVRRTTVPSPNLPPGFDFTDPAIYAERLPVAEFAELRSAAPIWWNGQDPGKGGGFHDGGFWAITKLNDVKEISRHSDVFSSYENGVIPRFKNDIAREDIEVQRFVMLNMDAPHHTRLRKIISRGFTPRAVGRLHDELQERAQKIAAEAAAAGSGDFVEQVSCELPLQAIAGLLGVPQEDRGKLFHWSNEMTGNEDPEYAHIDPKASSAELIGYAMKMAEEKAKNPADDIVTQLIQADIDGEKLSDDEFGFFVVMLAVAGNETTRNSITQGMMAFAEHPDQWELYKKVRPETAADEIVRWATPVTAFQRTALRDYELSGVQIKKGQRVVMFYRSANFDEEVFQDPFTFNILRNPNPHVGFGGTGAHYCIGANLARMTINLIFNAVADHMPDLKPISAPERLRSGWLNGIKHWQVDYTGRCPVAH
Type: binding
reported.conditions: compound 100 µM, P450 5 µM; high spin population; '-' = no HS maxima present
observation.type: CYP125 Δλmax (nm) HS
State the answer as a number, implicitly in nm.

Entry `OCc1cccc(Nc2ccncc2)c1` : reported CYP125 Δλmax (nm) HS = ?
0

Entry `O=C(O)c1ccc(Nc2ccncc2)cc1` : reported CYP125 Δλmax (nm) HS = ?
1

Entry `Brc1ccc(Nc2ccncc2)cc1` : reported CYP125 Δλmax (nm) HS = ?
2

Entry `Nc1ccc(Nc2ccncc2)cc1` : reported CYP125 Δλmax (nm) HS = ?
1

* * *

This listing pairs compounds with measured Δλmax (nm) CYP142, fragment screen.
system: CYP142 (Mycobacterium tuberculosis)
Sequence (P9WPL5 whole entry, the tested form may be a part): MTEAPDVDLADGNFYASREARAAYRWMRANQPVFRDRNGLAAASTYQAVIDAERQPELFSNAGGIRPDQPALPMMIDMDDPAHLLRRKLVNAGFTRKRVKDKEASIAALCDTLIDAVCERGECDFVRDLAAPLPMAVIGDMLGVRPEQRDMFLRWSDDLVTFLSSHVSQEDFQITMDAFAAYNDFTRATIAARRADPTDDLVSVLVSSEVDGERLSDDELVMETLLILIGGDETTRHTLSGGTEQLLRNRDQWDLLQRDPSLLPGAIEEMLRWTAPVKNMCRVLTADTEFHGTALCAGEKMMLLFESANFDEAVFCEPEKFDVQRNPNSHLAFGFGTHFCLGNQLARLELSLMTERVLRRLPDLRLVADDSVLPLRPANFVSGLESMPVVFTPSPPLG
reported.conditions: fragment 1 mM, P450 4-6 µM; relative to DMSO (418.5 nm)
State the answer as a number, implicitly in nm.

Study these solved cases before continuing.
Entry Nc1cccnc1O [compound 45] : reported Δλmax (nm) CYP142, fragment screen = ?
0

Entry CC(C)c1cc(C(=O)O)[nH]n1 [compound 46] : reported Δλmax (nm) CYP142, fragment screen = ?
0

Entry Cc1[nH]ncc1-c1ccccc1 [compound 14] : reported Δλmax (nm) CYP142, fragment screen = ?
1.5

Entry c1ccc(-c2c[nH]cn2)cc1 [compound 68] : reported Δλmax (nm) CYP142, fragment screen = ?
3

Entry O=C(O)c1cccc(-c2cccnc2)c1 [compound 74] : reported Δλmax (nm) CYP142, fragment screen = ?
0

Entry O=C(O)c1ccc(-c2cccnc2)cc1 [compound 53] : reported Δλmax (nm) CYP142, fragment screen = ?
0

Now consider a different compound.
Entry Oc1ccccn1 [compound 44] : reported Δλmax (nm) CYP142, fragment screen = ?
0
